biological target: 5-HT2A receptor (Rattus norvegicus (Rat), UniProt P14842); assay: Binding to 5-HT2A receptor ([3H]-Ketanserin, rat cortical membranes); parameters: species or system Sprague-Dawley (SD) rats; conditions: 1 h, read-out: 5-HT2A: Suppression
Sequence (P14842 whole entry): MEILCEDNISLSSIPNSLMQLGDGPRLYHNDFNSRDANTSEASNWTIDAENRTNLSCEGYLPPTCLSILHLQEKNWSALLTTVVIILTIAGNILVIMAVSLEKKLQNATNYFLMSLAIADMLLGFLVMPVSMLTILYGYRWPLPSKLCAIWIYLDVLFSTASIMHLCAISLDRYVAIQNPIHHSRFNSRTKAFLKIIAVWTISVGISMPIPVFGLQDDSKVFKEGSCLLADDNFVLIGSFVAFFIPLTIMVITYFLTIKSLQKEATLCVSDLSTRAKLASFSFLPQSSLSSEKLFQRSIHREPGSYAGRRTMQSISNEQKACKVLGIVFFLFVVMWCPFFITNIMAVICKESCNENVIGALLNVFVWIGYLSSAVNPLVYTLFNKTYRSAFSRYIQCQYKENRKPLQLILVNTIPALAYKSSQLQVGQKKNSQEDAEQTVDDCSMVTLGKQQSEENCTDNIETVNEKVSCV
Entries and their inhibition at 1 µM values follow.

Query NC(=O)OC(CCN1CCN(c2ccccc2)CC1)c1ccc([N+](=O)[O-])cc1 (centres unmarked) yields inhibition at 1 µM of 88%

Record NC(=O)OC(CCN1CCN(c2ccc([N+](=O)[O-])cc2)CC1)c1ccc(F)cc1 (centres unmarked) . Reported inhibition at 1 µM: 29.6%

Field inhibition at 1 µM (entry NC(=O)OC(CCN1CCN(c2ccccc2)CC1)c1ccc(F)cc1 (centres unmarked) ) reads 84.7%

Sure, the documented inhibition at 1 µM for COc1ccccc1N1CCN(CCC(OC(N)=O)c2ccc(F)cc2)CC1 (centres unmarked) is 71.5%

The compound identified as NC(=O)OC(CCN1CCN(c2ccc(F)cc2)CC1)c1ccc(F)cc1 (centres unmarked) registered its inhibition at 1 µM at 93.9%

* * *

Reported pIC50 values, 5-HT1A receptor (Rattus norvegicus (Rat), UniProt P19327).
Lab note — pIC50 values are minus log10 of concentrations in M.

>  <compound>
COc1ccc(N2CCN(CCC(OC(N)=O)c3ccccc3)CC2)cc1 (centres unmarked)

>  <resultNumber>
4.70

$$$$
>  <compound>
NC(=O)OC(CCN1CCN(c2ccccn2)CC1)c1ccccc1 (centres unmarked)

>  <resultNumber>
6.47

$$$$

Record NC(=O)OC(CCN1CCN(c2ccccc2)CC1)c1ccccc1 (centres unmarked) has 5-HT1A receptor (Rattus norvegicus (Rat), UniProt P19327) pIC50 equal to 6.36

Log: 5-HT1A receptor (Rattus norvegicus (Rat), UniProt P19327), compound NC(=O)OC(CCN1CCN(c2ccc(F)cc2)CC1)c1ccccc1 (centres unmarked) , pIC50 = 5.98

Simply: NC(=O)OC(CCN1CCN(c2cccc(C(F)(F)F)c2)CC1)c1ccccc1 (centres unmarked) , 5-HT1A receptor (Rattus norvegicus (Rat), UniProt P19327), pIC50 = 7.90

Test item NC(=O)OC(CCN1CCN(c2ccc([N+](=O)[O-])cc2)CC1)c1ccccc1 (centres unmarked) ; 5-HT1A receptor (Rattus norvegicus (Rat), UniProt P19327); reported pIC50 was 5.18

Record for NC(=O)OC(CCN1CCN(c2cccc(Cl)c2)CC1)c1ccccc1 (centres unmarked) under target or system 5-HT1A receptor (Rattus norvegicus (Rat), UniProt P19327): pIC50 reported as 7.03

Recorded pIC50 for NC(=O)OC(CCN1CCN(c2ccccc2F)CC1)c1ccccc1 (centres unmarked) on 5-HT1A receptor (Rattus norvegicus (Rat), UniProt P19327) was 6.80

The reported pIC50 value, 5-HT1A receptor (Rattus norvegicus (Rat), UniProt P19327), for COc1ccccc1N1CCN(CCC(OC(N)=O)c2ccccc2)CC1 (centres unmarked) reads 7.01

Note to self: pIC50 of NC(=O)OC(CCCN1CCN(c2ccccc2)CC1)c1ccccc1 (centres unmarked) with 5-HT1A receptor (Rattus norvegicus (Rat), UniProt P19327) was 7.05

Entry NC(=O)OC(CCN1CCN(c2ccc(Cl)cc2)CC1)c1ccccc1 (centres unmarked) under 5-HT1A receptor (Rattus norvegicus (Rat), UniProt P19327) had pIC50 of 5.73

The measured pIC50 that `COc1ccc(N2CCN(CC[C@@H](OC(N)=O)c3ccccc3)CC2)cc1` showed for 5-HT1A receptor (Rattus norvegicus (Rat), UniProt P19327) is 5.37

Tested on 5-HT1A receptor (Rattus norvegicus (Rat), UniProt P19327), the item COc1ccccc1N1CCN(CCCC(OC(N)=O)c2ccccc2)CC1 (centres unmarked) showed pIC50 equal to 8.24

Bench note, 5-HT1A receptor (Rattus norvegicus (Rat), UniProt P19327): NC(=O)OC(CCCN1CCN(c2ncccc2Cl)CC1)c1ccccc1 (centres unmarked) , pIC50 reads 6.74

The compound NC(=O)OC(CCCN1CCN(c2ccccn2)CC1)c1ccccc1 (centres unmarked) , when measured on 5-HT1A receptor (Rattus norvegicus (Rat), UniProt P19327), yielded pIC50 of 7.69

The compound COc1cccc(N2CCN(CCC(OC(N)=O)c3ccccc3)CC2)c1 (centres unmarked) , when measured on 5-HT1A receptor (Rattus norvegicus (Rat), UniProt P19327), yielded pIC50 of 7.09
